Please respond with reported selectivity ratio for every item in the list.
- PROTOCOL_DESCRIPTION: Selectivity ratio of MHC10 for BALB/C mouse erythrocytes to MIC for gram-negative bacteria
- Assay type: toxicity
Where a SMILES comes first, the peptide text is derived from it.
One number for each entry.

>  <COMPOUND>
CC(C)C[C@H](NC(=O)[C@H](C)NC(=O)[C@@H](NC(=O)[C@H](CCCCN)NC(=O)[C@H](C)NC(=O)[C@H](CCCNC(=N)N)NC(=O)[C@H](CCCCN)NC(=O)[C@H](C)NC(=O)[C@H](C)NC(=O)CN)[C@@H](C)O)C(N)=O (H-GAAKRAKTAL-NH2)

>  <RECORDED_METRIC>
selectivity ratio

>  <RECORDED_MEASUREMENT>
1

$$$$

In the following, a different compound is considered.
# selectivity ratio lookup, item CC(C)C[C@H](NC(=O)CN)C(=O)N[C@@H](Cc1c[nH]c2ccccc12)C(=O)N[C@@H](CCCCN)C(=O)N[C@@H](CCCNC(=N)N)C(=O)N[C@@H](Cc1c[nH]c2ccccc12)C(=O)N[C@@H](CCCCN)C(=O)N[C@@H](CCCCN)C(=O)N[C@@H](Cc1ccccc1)C(=O)N[C@@H](Cc1c[nH]c2ccccc12)C(N)=O (H-GLWKRWKKFW-NH2)
10.4

---

- System: Erythrocyte
- PROTOCOL_DESCRIPTION: Hemolytic activity in BALB/C mouse erythrocytes incubated for 1 hr by absorbance method
- Assay type: ADME, cell-based
Where a SMILES comes first, the peptide text is derived from it.

>  <MOLECULE>
CC[C@H](C)[C@H](NC(=O)[C@H](CCCNC(=N)N)NC(=O)[C@H](CCCCN)NC(=O)[C@H](Cc1ccccc1)NC(=O)[C@H](Cc1c[nH]c2ccccc12)NC(=O)[C@@H](N)CCCCN)C(=O)N[C@@H](CCCCN)C(=O)N[C@H](C(=O)N[C@@H](Cc1ccccc1)C(=O)N[C@@H](Cc1c[nH]c2ccccc12)C(N)=O)[C@@H](C)O (H-KWFKRIKTFW-NH2)

>  <ASSAY_TARGET>
Erythrocyte

>  <MHC10>
>= 512 uM

$$$$
>  <MOLECULE>
CC(C)C[C@H](NC(=O)CN)C(=O)N[C@@H](Cc1c[nH]c2ccccc12)C(=O)N[C@@H](CCCCN)C(=O)N[C@@H](CCCNC(=N)N)C(=O)N[C@@H](Cc1c[nH]c2ccccc12)C(=O)N[C@@H](CCCCN)C(=O)N[C@@H](CCCCN)C(=O)N[C@@H](Cc1ccccc1)C(=O)N[C@@H](Cc1c[nH]c2ccccc12)C(N)=O (H-GLWKRWKKFW-NH2)

>  <ASSAY_TARGET>
Erythrocyte

>  <MHC10>
83.63 µM

$$$$
>  <MOLECULE>
CC(C)C[C@H](NC(=O)CN)C(=O)N[C@@H](CC(C)C)C(=O)N[C@@H](CCCCN)C(=O)N[C@@H](CCCNC(=N)N)C(=O)N[C@@H](CC(C)C)C(=O)N[C@@H](CCCCN)C(=O)N[C@H](C(=O)N[C@@H](CC(C)C)C(=O)N[C@@H](C)C(N)=O)[C@@H](C)O (H-GLLKRLKTLA-NH2)

>  <ASSAY_TARGET>
Erythrocyte

>  <MHC10>
>= 512 uM

$$$$
>  <MOLECULE>
CC(C)C[C@H](NC(=O)[C@H](C)NC(=O)[C@@H](NC(=O)[C@H](CCCCN)NC(=O)[C@H](C)NC(=O)[C@H](CCCNC(=N)N)NC(=O)[C@H](CCCCN)NC(=O)[C@H](CC(C)C)NC(=O)[C@H](C)NC(=O)CN)[C@@H](C)O)C(N)=O (H-GALKRAKTAL-NH2)

>  <ASSAY_TARGET>
Erythrocyte

>  <MHC10>
>= 512 uM

$$$$
